# Test system: HT29 colon
# METHOD DESCRIPTION: NCI tumour cell line growth inhibition, 48 h; in the data active = GI50 below about 0.43 µM; inactive = the rest
API: response.call in active, inactive

See these solved cases before continuing.
I would be grateful if you could indicate the recorded call for "Cn1cc(-c2ccc3nnc(C(F)(F)c4ccc5ncccc5c4)n3n2)cn1" . inactive

Follow-up entry: "Oc1[nH]c2ccccc2c1/C=c1/ccc2c(c1)N=C(c1cc(F)cc(F)c1)N=2" inactive

Follow-up entry: "COc1ccc(Nc2ncccc2C(=O)NCc2cn(Cc3cccc(Oc4ccccc4)c3)nn2)c(OC)c1" inactive

Follow-up entry: O=C(NC(Cc1ccccc1)C(=O)CCl)OCc1ccccc1 (stereo unspecified) inactive

Follow-up entry: "COc1cc(-c2ccc(=O)oc2C#Cc2ccccc2)cc(OC)c1OC" inactive

Next:
I would be grateful if you could indicate the recorded call for "O=C(c1ccccc1)c1c2n(c3c1cc(O)c1ccccc13)CCN2" . inactive

Follow-up entry: "CCOC(=O)Nc1cc(-c2ccc(C)c(NS(C)(=O)=O)c2)nn2c(C)nnc12" inactive

Follow-up entry: "O=C1Nc2c(ccc(Cl)c2Cl)/C1=C\c1cc(C(F)(F)F)cc(C(F)(F)F)c1" inactive

Follow-up entry: "CN1CCN(Cn2nc(-c3cc(F)c(Cl)cc3Cl)oc2=S)CC1" inactive

Follow-up entry: "CCN(CC)CCNC(=O)C(Cl)=C1C(Cl)=C(Cl)C(Cl)=C1Cl" inactive

Follow-up entry: "Cn1c(=O)c(-c2c(Cl)cccc2Cl)cc2cnc(Nc3ccc(I)cc3)nc21" active

---

# Test system: SK-MEL-5 melanoma
# METHOD DESCRIPTION: NCI tumour cell line growth inhibition, 48 h; in the data active means GI50 below about 0.43 µM; inactive means the rest
API: response.call in active, inactive

See these solved cases before continuing.
I would be grateful if you could indicate the recorded call for "O=C(Nc1ccc(Cl)cc1)c1cc2ccccc2cc1OP(=O)(O)O" . inactive

Follow-up entry: "CNC(=O)c1cc(Oc2ccc3nc(NC(=O)Nc4cc(C(F)(F)F)cc(C(F)(F)F)c4)sc3c2)ccn1" inactive

Follow-up entry: "N/C(=N\C(N)=N\c1nc2ccccc2s1)c1ccnc(Br)c1" inactive

Follow-up entry: "COc1ccc(Nc2ncccc2C(=O)NCc2cn(Cc3cccc(Oc4ccccc4)c3)nn2)c(OC)c1" inactive

For the next question, use this molecule.
I would be grateful if you could indicate the recorded call for "Cn1c(=O)c(-c2c(Cl)cccc2Cl)cc2cnc(Nc3ccc(I)cc3)nc21" . active

---

# System: NCI-H226 lung
# METHOD DESCRIPTION: NCI tumour cell line growth inhibition, 48 h; in the data active = GI50 below about 0.43 µM; inactive = the rest
API: response.call in active, inactive

I would be grateful if you could indicate the recorded call for "Cc1cc2nc3c4cc([N+](=O)[O-])ccc4n(CCN(C)C)c3nc2cc1C" . inactive

Follow-up entry: "O=C1c2ccccc2-c2ccccc2C1(Cl)Cl" inactive

Follow-up entry: "COc1cc(/C=C/c2ccc(S(N)(=O)=O)cc2)cc(OC)c1" inactive

Follow-up entry: "CNC(=O)c1cc(Oc2ccc3nc(NC(=O)Nc4cc(C(F)(F)F)cc(C(F)(F)F)c4)sc3c2)ccn1" inactive

Next:
I would be grateful if you could indicate the recorded call for "O=C1Nc2c(ccc(Cl)c2Cl)/C1=C\c1cc(C(F)(F)F)cc(C(F)(F)F)c1" . inactive

Follow-up entry: "C1C[S][Ge]2([S]CCS1)[S]CCSCC[S]2" inactive

Follow-up entry: "CCN(CC)CCNC(=O)C(Cl)=C1C(Cl)=C(Cl)C(Cl)=C1Cl" inactive

---

# Test system: HT29 colon
# METHOD DESCRIPTION: NCI tumour cell line growth inhibition, 48 h
Lab note: compare TGI against 20 µM. Equal or greater, write Met. Smaller, write Not met.

# bool: TGI of COc1cc(C2c3cc4c(cc3OC(NNc3ccccc3)C2C)OCO4)cc(OC)c1O (stereo not given) >= 20 µM Not met

Follow-up entry: "O=[N+]([O-])c1ccc2c(N=Nc3ccc4ccccc4c3O)c(O)cc(S(=O)(=O)O)c2c1" Met

Follow-up entry: "COc1ccc(C2NC3=C(CCCC3)N2)cc1" Met

Follow-up entry: "COc1c(OC)c(OC)c(-c2cc(=O)c3c(OC)c(OC)c(OC)c(OC)c3o2)c(OC)c1OC" Met

Follow-up entry: "O=C1Nc2c(ccc(Cl)c2Cl)/C1=C\c1cc(C(F)(F)F)cc(C(F)(F)F)c1" Not met

Follow-up entry: COc1cccc2c1C(=O)c1c(O)c3c(c(O)c1C2=O)CC(O)(C(C)=O)CC3O (stereo not given) Met

Follow-up entry: Nc1nc(Cl)nc2c1ncn2C1OC(CO)C(O)C1O (stereo not given) Met

Follow-up entry: NC(CSC1(c2ccc(Cl)cc2)c2ccccc2-c2ccccc21)C(=O)O (stereo not given) Met

Follow-up entry: "O=C(CBr)NCCc1c[nH]c2ccccc12" Not met

Next:
# bool: TGI of "CNC(=O)c1cc(Oc2ccc3nc(NC(=O)Nc4cc(C(F)(F)F)cc(C(F)(F)F)c4)sc3c2)ccn1" >= 20 µM Not met

---

compounds and their reported TGI
# Test system: SK-MEL-5 melanoma
# METHOD DESCRIPTION: NCI tumour cell line growth inhibition, 48 h

Some compounds with known TGI results, for comparison:
TGI for "COC(=O)Cc1nn2c(nc1=O)sc1ccc3ccccc3c12" ? > 100 µM

Follow-up entry: "N#CCN1CCCN(CC#N)CCN(CC#N)CCCN(CC#N)CC1" > 100 µM

Follow-up entry: COC(=O)C1=C(C)NC2=C(C(=O)c3ccccc32)C1c1cn[nH]c1-c1ccccc1 (stereo unspecified) > 100 µM

Follow-up entry: "COC(=O)[C@H](C)[C@@H]1CC[C@](C)(CCC2=C(C)CCCC2(C)C)OO1" > 25 µM

Follow-up entry: "CCc1n[nH]c(=O)n1N=C(c1ccccc1)c1ccccc1" > 100 µM

Please examine the following record next.
TGI for "COc1ccc2nc3c([N+](=O)[O-])ccc(NCCCN(C)C)c3c(N)c2c1" ? 3.63 µM

---

# Test system: BT-549 breast
# METHOD DESCRIPTION: NCI tumour cell line growth inhibition, 48 h
MEASURED METRIC: TGI

Some compounds with known TGI results, for comparison:
Form: Entry = CC1(C)OC2[C@@H](CO[C@@]3([C@H]4OC(C)(C)O[C@@H]4CO)OC(C)(C)O[C@@H]23)O1 (stereo not given in full) | System = BT-549 breast | TGI = ____ > 100 µM

Follow-up entry: "COC1=CC(c2ccc[nH]2)=N/C1=C\c1[nH]c(C)c(C)c1CCC(=O)OCc1ccccc1" 2.9 µM

Follow-up entry: "O=c1cc(NNc2cccc(F)c2)[nH]c(=S)[nH]1" > 100 µM

Next:
Form: Entry = "COc1cc2nc3n(c(=O)c2cc1OC)CCCCC3" | System = BT-549 breast | TGI = ____ > 100 µM

Follow-up entry: CC(=O)OC12OC(C)(C3C(=O)N(c4ccccc4)C(=O)C31)N(c1ccccc1)C2=O (stereo not given) > 100 µM

---

# System: OVCAR-4 ovarian
# METHOD DESCRIPTION: NCI tumour cell line growth inhibition, 48 h
MEASURED METRIC: TGI

Some compounds with known TGI results, for comparison:
TGI for O=C1c2ccccc2C(=O)c2c(NCC3CO3)cccc21 (configuration not stated) ? > 100 µM

Follow-up entry: CCOC(=O)CCC(C(=O)OCC)n1nnc2ccc(Nc3c(C)[n+]([O-])c4cc(F)c(OCC)cc4[n+]3[O-])cc21 (configuration not stated) > 100 µM

Next:
TGI for "COC(=O)Cc1nn2c(nc1=O)sc1ccc3ccccc3c12" ? > 100 µM

Follow-up entry: "O=[N+]([O-])c1cccc([I+]c2ccccc2)c1" 36 µM

Follow-up entry: "COc1cc(-c2ccc(=O)oc2C#Cc2ccccc2)cc(OC)c1OC" > 100 µM

Follow-up entry: "O=C1Nc2c(ccc(Cl)c2Cl)/C1=C\c1cc(C(F)(F)F)cc(C(F)(F)F)c1" 7.66 µM

Follow-up entry: "COc1ccc2c(c1)C(=O)c1c-2c(OCCN2CCCCC2)nc2ccc(OC)cc12" 10.7 µM

Follow-up entry: COC(=O)C1CCCN1C(=O)OC(C)(C)C (configuration not stated) > 100 µM

Follow-up entry: C=CCCCC(O)c1ccc(C(O)c2cnc3ccccc3c2)o1 (configuration not stated) > 100 µM

Follow-up entry: Cc1ccnc(NC(c2ccccc2)c2ccc3cccnc3c2O)c1 (configuration not stated) 27.1 µM

Follow-up entry: O=C1NC2OC(CO)C(O)C(O)C2O1 (configuration not stated) > 100 µM

Follow-up entry: COC(=O)C1=C(C)NC2=C(C(=O)c3ccccc32)C1c1cn[nH]c1-c1ccccc1 (configuration not stated) > 100 µM

Follow-up entry: "Cn1c(=O)c(-c2c(Cl)cccc2Cl)cc2cnc(Nc3ccc(I)cc3)nc21" 7.49 µM

Follow-up entry: "Cc1cc(C)c(C2=NO[C@@H]3C(=O)N(c4ccc(Cc5ccc(N6C(=O)[C@H]7C(c8c(C)cc(C)cc8C)=NO[C@H]7C6=O)cc5)cc4)C(=O)[C@H]23)c(C)c1" > 100 µM

Follow-up entry: COc1cccc2c1C(=O)c1c(O)c3c(c(O)c1C2=O)CC(O)(C(C)=O)CC3O (configuration not stated) 19.6 µM

Follow-up entry: CCOP(=O)(OCC)C(C)(CC)/N=C(\N)NC#N (configuration not stated) > 100 µM

Follow-up entry: "CSCC(COC(C)=O)(CSC)c1ccncc1" > 100 µM
